experiment: NCI Yeast Anticancer Drug Screen. Data for the cln2 rad14 strain (AID 165);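 note: 0% = growth equal to vehicle treated cultures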; conditions: S. cerevisiae cln2 rad14 strain, at 50.0 µM (retest, dose inferred, filed as 5.0), active compounds read high
This is part of a sample that, as a whole, favours compounds with a hit. Of some 79,000 tested, about 15% had one in any assay.
Recorded growth inhibition, one value per entry.
assay endpoint: growth inhibition (%)

>>> numeric_readout("N#CC(Cl)(Cl)CCl")
33
>>> numeric_readout("CCOc1c(Br)cc(/C=C(\\C)[N+](=O)[O-])cc1OC")
-3
>>> numeric_readout("ClCCN(Cc1ccccc1)CC1COc2ccccc2O1 (configuration not stated)")
34
>>> numeric_readout("N#C[S-].[La+3].c1ccc(-c2ccccn2)nc1.c1ccc(-c2ccccn2)nc1.c1ccc(-c2ccccn2)nc1")
90
>>> numeric_readout("Nc1ccccc1O.O.O=C(O)C1[O][Sb][O]C1C(=O)O (configuration not stated)")
20
>>> numeric_readout("CC1=CC(=C2C=CC(=[N+](C)C)C=C2)C=C(C)S1")
82
>>> numeric_readout("Cc1ccc(N=P(c2ccccc2)(c2ccccc2)c2ccccc2)cc1.[Br][Hg][Br]")
99
>>> numeric_readout("CCOC(=O)c1[nH]cnc1/N=N/N(C)N")
81
>>> numeric_readout("C[C](=O)[Hg][O]c1ccc(N=Cc2ccccc2O)cc1")
99
>>> numeric_readout("COc1ccc2nc3ccccc3c(NCCCCN(C)CCCl)c2c1")
98
>>> numeric_readout("OCC1N2CCC(CC2)C1(O)O (configuration not stated)")
2
>>> numeric_readout("O=C(O)C(F)(F)C(F)(F)C(=O)O")
1
